test system: HUVEC; experiment: cells; details: Homo sapiens
Description: Inhibition of VEGF-induced proliferation of HUVEC cells
compounds and their reported IC50
Give your result in nM as a bare value.

Recorded IC50, per entry:
COc1cc2nccc(Oc3ccc4c(C(=O)Nc5ccc(Cl)cc5Cl)cccc4c3)c2cc1OC : 14
COc1cc2nccc(Oc3ccc4c(C(=O)Nc5ccc(Cl)cc5)ccnc4c3)c2cc1OC : 10
COc1cc2nccc(Oc3ccc4c(C(=O)Nc5cc(C)on5)cccc4c3)c2cc1OC : 6
COc1cc2nccc(Oc3ccc4c(C(=O)Nc5ccc(C(F)(F)F)cc5)cccc4c3)c2cc1OC : 16

Input COc1cc2nccc(Oc3ccc4c(C(=O)Nc5cc(C)no5)cccc4c3)c2cc1OC . Output IC50: 7
